Reference source: patent US20260070911A1

This section presents compounds with their documented IC50 values.
Biological target: MERTK (Homo sapiens)
Sequence (Q12866 21-999): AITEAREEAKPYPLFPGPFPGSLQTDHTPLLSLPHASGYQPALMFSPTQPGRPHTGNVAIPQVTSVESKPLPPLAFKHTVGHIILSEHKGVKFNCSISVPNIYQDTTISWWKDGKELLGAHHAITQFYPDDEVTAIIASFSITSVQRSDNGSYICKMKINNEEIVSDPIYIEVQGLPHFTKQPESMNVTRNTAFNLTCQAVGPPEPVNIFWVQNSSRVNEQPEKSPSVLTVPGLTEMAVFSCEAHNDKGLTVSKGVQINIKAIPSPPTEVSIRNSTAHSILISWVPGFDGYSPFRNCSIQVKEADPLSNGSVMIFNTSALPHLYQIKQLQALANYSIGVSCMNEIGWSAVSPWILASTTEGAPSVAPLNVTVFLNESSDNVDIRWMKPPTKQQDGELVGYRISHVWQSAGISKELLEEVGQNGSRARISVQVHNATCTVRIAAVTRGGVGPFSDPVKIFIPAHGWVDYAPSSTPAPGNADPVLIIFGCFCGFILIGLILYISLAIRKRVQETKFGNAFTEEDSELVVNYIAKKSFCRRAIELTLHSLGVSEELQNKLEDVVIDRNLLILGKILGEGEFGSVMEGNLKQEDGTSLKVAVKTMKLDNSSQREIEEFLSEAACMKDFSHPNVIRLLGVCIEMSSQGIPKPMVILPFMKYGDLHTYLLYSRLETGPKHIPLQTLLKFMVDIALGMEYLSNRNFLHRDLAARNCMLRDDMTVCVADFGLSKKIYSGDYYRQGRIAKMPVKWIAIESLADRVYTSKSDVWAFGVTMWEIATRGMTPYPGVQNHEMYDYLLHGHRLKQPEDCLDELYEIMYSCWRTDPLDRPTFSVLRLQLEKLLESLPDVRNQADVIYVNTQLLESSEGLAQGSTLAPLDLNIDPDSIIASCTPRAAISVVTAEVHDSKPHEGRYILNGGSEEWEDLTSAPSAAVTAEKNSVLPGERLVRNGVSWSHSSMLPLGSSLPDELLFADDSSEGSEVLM
Assay: MERTK enzymatic assay (Kinase Glo)
Format: biochemical
Conditions: purified kinase, ATP 12 μM, read-out: MER Enzymatic Inhibition (%)
measurement-label: IC50

>>> result("C=CC(=O)Nc1cccc(-c2c(-c3cnn(C)c3)oc3ncnc(Oc4ccc(NC(=O)c5cccn(-c6ccc(F)cc6)c5=O)cc4)c23)c1 [Compound 12]")
"100 to 50000 nM"
>>> result("CC(=O)Nc1cccc(-c2c(-c3cn(C)nc3C)oc3ncnc(Oc4ccc(NC(=O)c5cccn(-c6ccc(F)cc6)c5=O)cc4)c23)c1 [Compound 27]")
"100 to 50000 nM"
>>> result("Cn1cc(-c2cc3c(Oc4ccc(NC(=O)c5cccn(-c6ccc(F)cc6)c5=O)cc4)ncnc3[nH]2)cn1 [Compound 78]")
"20 to 100 nM"
>>> result("Cn1cc(-c2oc3ncnc(Oc4ccc(NC(=O)c5cccn(C6CCCCC6)c5=O)cc4)c3c2-c2cccc(N)c2)cn1 [Compound 83]")
"100 to 50000 nM"
>>> result("Cn1cc(-c2oc3ncnc(Oc4ccc(NC(=O)c5cccn(-c6ccc(F)cc6)c5=O)nc4)c3c2-c2cccc(N)c2)cn1 [Compound 52]")
"20 to 100 nM"
>>> result("CC(=O)Nc1cccc(-c2c(-c3cnn(C)c3)oc3ncnc(Oc4ccc(NC(=O)c5cccn(-c6ccc(F)cc6C)c5=O)cc4)c23)c1 [Compound 74]")
"100 to 50000 nM"
>>> result("Cc1ccn(-c2ccc(F)cc2)c(=O)c1C(=O)Nc1ccc(Oc2ncnc3oc(-c4cnn(C)c4)c(-c4cccc(N)c4)c23)cc1 [Compound 71]")
"< 20 nM"
>>> result("CC(=O)Nc1cccc(-c2c(Br)oc3ncnc(Oc4ccc(NC(=O)c5cccn(-c6ccc(F)cc6)c5=O)cc4)c23)c1 [Compound 49]")
"100 to 50000 nM"
>>> result("Cc1cc(F)ccc1-n1cccc(C(=O)Nc2ccc(Oc3ncnc4oc(-c5cnn(C)c5)c(-c5cccc(CN(C)C)c5)c34)cc2)c1=O [Compound 98]")
"20 to 100 nM"
>>> result("CC(=O)Nc1cccc(-c2c(-c3cnn(C)c3)oc3ncnc(Oc4ccc(NC(=O)c5cccn(-c6cccc(F)c6)c5=O)cc4)c23)c1 [Compound 57]")
"100 to 50000 nM"
>>> result("O=C(Nc1ccc(Nc2ncnc3[nH]cc(C#Cc4ccccc4)c23)cc1)c1cccn(-c2ccc(F)cc2)c1=O [Compound 13]")
"100 to 50000 nM"
>>> result("Cn1cc(-c2oc3ncnc(Oc4ccc(NC(=O)c5cccn(-c6ccc(F)cc6)c5=O)cc4)c3c2-c2ccc(N3CCNCC3)cc2)cn1 [Compound 32]")
"< 20 nM"
>>> result("Cn1cc(-c2oc3ncnc(Oc4ccc(NC(=O)c5ccc(-c6ccc(F)cc6)o5)cc4)c3c2-c2cccc(N)c2)cn1 [Compound 117]")
"100 to 50000 nM"
>>> result("COc1nn(-c2ccc(C)cc2)cc1C(=O)Nc1ccc(Oc2ncnc3oc(-c4cnn(C)c4)c(-c4cccc(CN(C)C)c4)c23)cc1 [Compound 138]")
"100 to 50000 nM"
>>> result("CN(C)Cc1cccc(-c2c[nH]c3ncnc(Oc4ccc(NC(=O)c5cccn(-c6ccc(F)cc6)c5=O)cc4)c23)c1 [Compound 82]")
"< 20 nM"
>>> result("CCOc1ccn(-c2ccc(F)cc2)c(=O)c1C(=O)Nc1ccc(Oc2ncnc3[nH]ccc23)cc1 [Compound 6]")
"100 to 50000 nM"
>>> result("CC(=O)Nc1cccc(-c2c(-c3cnn(C)c3)oc3ncnc(Oc4ccc(NC(=O)c5ccc(-c6ccc(F)cc6)o5)cc4)c23)c1 [Compound 118]")
"100 to 50000 nM"
>>> result("Cn1cc(-c2oc3ncnc(Oc4ccc(NC(=O)c5cccn(-c6ccc(F)nc6)c5=O)cc4)c3c2-c2cccc(N)c2)cn1 [Compound 80]")
"20 to 100 nM"
>>> result("CN1CCN(c2cccc(-c3c(-c4cnn(C)c4)oc4ncnc(Oc5ccc(NC(=O)c6cccn(-c7ccc(F)cc7)c6=O)cc5)c34)c2)CC1 [Compound 38]")
"20 to 100 nM"
>>> result("CC(=O)Nc1cccc(-c2c(-c3cnn(C)c3)oc3ncnc(Oc4ccc(NC(=O)c5cccn(-c6ccc(F)cc6)c5=O)nc4)c23)c1 [Compound 53]")
"20 to 100 nM"
>>> result("CC(=O)Nc1cccc(-c2c(-c3cnn(C)c3)oc3ncnc(Oc4ccc(NC(=O)c5cccn(C)c5=O)cc4)c23)c1 [Compound 75]")
"100 to 50000 nM"
>>> result("CC(=O)Nc1cccc(-c2c(-c3cnn(C)c3)oc3ncnc(Oc4ccc(NC(=O)c5cc(-c6ccc(F)cc6)on5)cc4)c23)c1 [Compound 116]")
"100 to 50000 nM"
>>> result("COc1nn(-c2ccc(C)cc2)cc1C(=O)Nc1ccc(Oc2ncnc3oc(-c4cnn(C)c4)c(-c4cccc(N)c4)c23)cc1 [Compound 136]")
"100 to 50000 nM"
>>> result("Cn1cc(-c2oc3ncnc(Oc4ccc(NC(=O)c5cccn(-c6ccc(F)cc6)c5=O)cc4)c3c2-c2cccc(N3CCCCC3=O)c2)cn1 [Compound 175]")
"100 to 50000 nM"
>>> result("Cn1cc(C(=O)Nc2ccc(Oc3ncnc4[nH]cc(-c5cccc(N)c5)c34)cc2)c(=O)n1-c1ccc(F)cc1 [Compound 124]")
"100 to 50000 nM"
